These entries and their values trace back to patent EP4725957A1.

Tested on: Pseudomonas aeruginosa PAE19-3
Assay type: cell-based
appliedConditions: PAE19-3
Bridge positions count the residues as written; N and C are the ends. Square brackets hold non-standard residues; d marks the D form. Peptide text beside a SMILES is read from it. * marks the point of attachment. X1 = CC[C@H](C)CCCCC(=O)*; dDab = NCC[C@@H](N)C(=O)O; Octanoyl = CCCCCCCC(=O)*; Orn = NCCC[C@H](N)C(=O)O; Dab = NCC[C@H](N)C(=O)O; Dap = NC[C@H](N)C(=O)O
valueType: MIC (µg/mL)
Give a bare numeral; the unit µg/mL is implied.

# molecule CCCCCCCC(=O)N[C@@H](CN)C(=O)N[C@H](C(=O)N[C@H](CCN)C(=O)N[C@H]1CCNC(=O)[C@H]([C@@H](C)O)NC(=O)[C@H](CCN)NC(=O)[C@H](CCN)NC(=O)[C@H](CC(C)C)NC(=O)[C@@H](Cc2ccccc2)NC(=O)[C@H](CCN)NC1=O)[C@@H](C)O [Compound 93] (Octanoyl-[Dap]T[dDab][Dab][Dab][dF]L[Dab][Dab]T; lactam 4-C) ; its MIC = 1

# molecule CC[C@H](C)CCCCC(=O)N[C@@H](CCN)C(=O)N[C@H](C(=O)N[C@H](CO)C(=O)N[C@H]1CCNC(=O)[C@H]([C@@H](C)O)NC(=O)[C@H](CCCN)NC(=O)[C@H](CCN)NC(=O)[C@H]([C@@H](C)O)NC(=O)[C@@H](Cc2ccccc2)NC(=O)[C@H](CCN)NC1=O)[C@@H](C)O [Compound 86] (X1-[Dab]T[dS][Dab][Dab][dF]T[Dab][Orn]T; lactam 4-C) ; its MIC = 64

###

Test system: Acinetobacter baumannii NCTC 13304 (OXA-27)
Assay type: cell-based
appliedConditions: NCTC 13304
Description: The minimal inhibitory concentration (MIC) was determined by the broth microdilution method according to the recommended procedures of the Clinical and Laboratory Standards Institute (CLSI). An appropriate amount of the cyclic lipopeptide compounds prepared in Examples 1-120 and the reference standards were weighed and dissolved in sterile pure water. […]
Bridge positions count the residues as written; N and C are the ends. Square brackets hold non-standard residues; d marks the D form. Peptide text beside a SMILES is read from it. * marks the point of attachment. Heptanoyl(6-Me) = CC(C)CCCCC(=O)*; Heptanoyl = CCCCCCC(=O)*; Octanoyl = CCCCCCCC(=O)*; Orn = NCCC[C@H](N)C(=O)O; Dab = NCC[C@H](N)C(=O)O; Dap = NC[C@H](N)C(=O)O
valueType: MIC

# compound CC(C)CCCCC(=O)N[C@@H](CCN)C(=O)N[C@H](C(=O)N[C@H](CO)C(=O)N[C@H]1CCNC(=O)[C@H]([C@@H](C)O)NC(=O)[C@H](CCN)NC(=O)[C@H](CN)NC(=O)[C@H]([C@@H](C)O)NC(=O)[C@@H](Cc2ccccc2)NC(=O)[C@H](CCN)NC1=O)[C@@H](C)O [Compound 72] ({Heptanoyl(6-Me)}-[Dab]T[dS][Dab][Dab][dF]T[Dap][Dab]T; lactam 4-C) ; its MIC = ≤0.03 µg/mL

# compound CCCCCCC(=O)N[C@@H](CCN)C(=O)N[C@H](C(=O)N[C@H](CO)C(=O)N[C@H]1CCNC(=O)[C@H]([C@@H](C)O)NC(=O)[C@H](CCN)NC(=O)[C@H](CCN)NC(=O)[C@H]([C@@H](C)O)NC(=O)[C@@H](Cc2ccccc2)NC(=O)[C@H](CCCN)NC1=O)[C@@H](C)O [Compound 69] (Heptanoyl-[Dab]T[dS][Dab][Orn][dF]T[Dab][Dab]T; lactam 4-C) ; its MIC = 0.25 µg/mL

# compound CCCCCCCC(=O)N[C@@H](CCN)C(=O)N[C@H](C(=O)N[C@H](CO)C(=O)N[C@H]1CCNC(=O)[C@H]([C@@H](C)O)NC(=O)[C@H](CN)NC(=O)[C@H](CCN)NC(=O)[C@H]([C@@H](C)O)NC(=O)[C@@H](Cc2ccccc2)NC(=O)[C@H](CCN)NC1=O)[C@@H](C)O [Compound 83] (Octanoyl-[Dab]T[dS][Dab][Dab][dF]T[Dab][Dap]T; lactam 4-C) ; its MIC = ≤0.03 µg/mL
